From: ChEMBL document CHEMBL1131001

tgt: Acetylcholinesterase (Homo sapiens, UniProt P22303)
Sequence (P22303 whole entry): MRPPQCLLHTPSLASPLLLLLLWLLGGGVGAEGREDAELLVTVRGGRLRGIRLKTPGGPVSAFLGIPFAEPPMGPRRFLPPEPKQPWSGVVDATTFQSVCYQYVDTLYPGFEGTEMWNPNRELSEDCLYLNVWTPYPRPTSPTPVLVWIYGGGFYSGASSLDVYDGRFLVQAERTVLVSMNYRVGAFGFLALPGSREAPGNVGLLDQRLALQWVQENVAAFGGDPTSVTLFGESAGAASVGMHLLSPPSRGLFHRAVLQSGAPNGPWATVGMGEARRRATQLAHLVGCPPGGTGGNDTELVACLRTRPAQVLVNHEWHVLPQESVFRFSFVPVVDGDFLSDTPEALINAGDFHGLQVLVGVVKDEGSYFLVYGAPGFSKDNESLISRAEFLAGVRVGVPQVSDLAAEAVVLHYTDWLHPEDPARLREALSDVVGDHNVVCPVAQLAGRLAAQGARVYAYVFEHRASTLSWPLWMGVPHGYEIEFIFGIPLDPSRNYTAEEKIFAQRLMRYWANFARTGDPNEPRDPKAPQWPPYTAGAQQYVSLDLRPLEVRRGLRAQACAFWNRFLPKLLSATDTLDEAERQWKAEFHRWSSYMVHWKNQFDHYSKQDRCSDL
protocolDetails: Anticholinesterase activity against erythrocyte acetylcholinesterase (AChE) in humans.
observedProperty: IC50 (µM)
Report the figure in µM without appending any unit label.

# example entries with known answers
1. CNC(=O)Oc1ccc2c(c1)[C@@]1(C)CCNC1N2 (stereo partly specified) :: 1.49
2. CNC(=O)Oc1ccc2c(c1)[C@@]1(C)CCN(Cc3ccccc3)C1N2Cc1ccccc1 (stereo partly specified) :: 3.56
3. C[C@@]12CCN(Cc3ccccc3)C1N(Cc1ccccc1)c1ccc(OC(=O)Nc3ccccc3)cc12 (single isomer, unassigned; (-)) :: 41.1
4. C[C@]12CCNC1Nc1ccc(OC(=O)Nc3ccccc3)cc12 (stereo partly specified) :: 0.231
5. CNC(=O)Oc1ccc2c(c1)[C@]1(C)CCNC1N2 (stereo partly specified) :: 0.0109

Proceeding to the next molecule to report its IC50.
Fill in: IC50 of CNC(=O)Oc1ccc2c(c1)[C@]1(C)CCN(Cc3ccccc3)C1N2Cc1ccccc1 (stereo partly specified) is ___
1.09

---

tgt: Cholinesterase (Homo sapiens)
Sequence (P06276 whole entry): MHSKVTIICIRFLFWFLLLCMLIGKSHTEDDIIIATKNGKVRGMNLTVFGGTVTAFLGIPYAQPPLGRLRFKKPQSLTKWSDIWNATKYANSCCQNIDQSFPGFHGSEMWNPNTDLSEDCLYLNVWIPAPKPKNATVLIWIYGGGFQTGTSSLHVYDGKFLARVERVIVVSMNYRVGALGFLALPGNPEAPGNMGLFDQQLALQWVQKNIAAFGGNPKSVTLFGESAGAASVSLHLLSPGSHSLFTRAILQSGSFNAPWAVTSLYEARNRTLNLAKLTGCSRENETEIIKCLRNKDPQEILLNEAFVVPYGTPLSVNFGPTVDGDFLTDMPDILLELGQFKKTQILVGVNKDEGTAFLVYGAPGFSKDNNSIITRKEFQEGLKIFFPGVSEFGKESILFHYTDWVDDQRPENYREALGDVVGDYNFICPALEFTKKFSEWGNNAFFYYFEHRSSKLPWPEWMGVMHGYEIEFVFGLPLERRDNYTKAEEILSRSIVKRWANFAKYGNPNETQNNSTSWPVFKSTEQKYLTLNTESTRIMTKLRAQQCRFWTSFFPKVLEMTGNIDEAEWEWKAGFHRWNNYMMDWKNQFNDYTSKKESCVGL
protocolDetails: Anticholinesterase activity against plasma Butyrylcholinesterase (BChE) in humans.
Assay type: cell-free
A collection of compounds and their measured log10 IC50
Remember, log10 of IC50, in nM.

Below, 7 compounds whose answers are already recorded.
1) CNC(=O)Oc1ccc2c(c1)[C@@]1(C)CCN(Cc3ccccc3)C1N2Cc1ccccc1 (stereo partly drawn) :: 2.89
2) CNC(=O)Oc1ccc2c(c1)[C@@]1(C)CCNC1N2 (stereo partly drawn) :: 2.37
3) C[C@@]12CCN(Cc3ccccc3)C1N(Cc1ccccc1)c1ccc(OC(=O)Nc3ccccc3)cc12 (single isomer, unassigned; (-)) :: 2.71
4) CNC(=O)Oc1ccc2c(c1)[C@]1(C)CCN(Cc3ccccc3)C1N2Cc1ccccc1 (stereo partly drawn) :: 0.91
5) C[C@@]12CCNC1Nc1ccc(OC(=O)Nc3ccccc3)cc12 (stereo partly drawn) :: 2.95
6) C[C@]12CCNC1Nc1ccc(OC(=O)Nc3ccccc3)cc12 (stereo partly drawn) :: 2.98
7) CNC(=O)Oc1ccc2c(c1)[C@]1(C)CCNC1N2 (stereo partly drawn) :: 0.38

Now let's try a different one.
Looking for the measured log10 IC50 of CN1c2ccc(OC(=O)Nc3ccccc3)cc2[C@]2(C)CCNC12 (stereo partly drawn) , can you help?
2.79
